- tested.on: rat TAAR1 (Rattus norvegicus (Rat), UniProt Q923Y9)
- Sequence (Q923Y9 whole entry): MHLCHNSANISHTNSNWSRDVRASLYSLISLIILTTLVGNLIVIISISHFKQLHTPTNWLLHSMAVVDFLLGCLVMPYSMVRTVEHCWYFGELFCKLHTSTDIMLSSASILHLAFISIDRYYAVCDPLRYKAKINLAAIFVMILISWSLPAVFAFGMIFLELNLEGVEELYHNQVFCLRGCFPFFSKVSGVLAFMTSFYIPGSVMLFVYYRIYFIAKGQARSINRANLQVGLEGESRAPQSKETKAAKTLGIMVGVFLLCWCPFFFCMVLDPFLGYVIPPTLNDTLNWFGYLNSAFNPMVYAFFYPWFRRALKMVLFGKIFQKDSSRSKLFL
- experimental.details: Radioligand binding assay on rat TAAR1
- run.parameters: membranes of HEK-293 cells stably expressing rat TAAR1; second value of cell mouse/rat
Counter-ions that a name gives are not always drawn.
measurement.kind: Ki (µM)
Dear colleague, please return just the value in µM, with no unit written.

compound="Cn1nc(-c2ccc(C#N)cc2)cc1C(=O)Nc1ccc([C@H]2CNCCO2)cc1 [Example 21, hydrochloride]" unit_text=µM numeric_result=0.0055
compound="N#Cc1cccc(-c2cc(C(=O)Nc3ccc(C4CCNC4)cc3)[nH]n2)c1 (racemic) [Example 38, hydrochloride]" unit_text=µM numeric_result=0.0042
compound="O=C(Nc1ccc([C@H]2CNCCO2)cc1)c1cc(-c2ccccc2)[nH]n1 [Example 1, hydrochloride]" unit_text=µM numeric_result=0.0043
compound="N#Cc1cccc(-c2cc(C(=O)Nc3ccc([C@H]4CCCNC4)cc3)[nH]n2)c1 [Example 37, hydrochloride]" unit_text=µM numeric_result=0.0027
compound="Cn1nc(-c2ccc(F)cc2)cc1C(=O)Nc1ccc(C2CNCCO2)cc1 (stereo in doubt) [Example 22, hydrochloride]" unit_text=µM numeric_result=0.0022
compound="CCn1nc(-c2ccc(C#N)cc2)cc1C(=O)Nc1ccc([C@H]2CNCCO2)cc1 [Example 26, hydrochloride]" unit_text=µM numeric_result=0.0316

# Ki measured on rat TAAR1 (Rattus norvegicus (Rat), UniProt Q923Y9) for item O=C(Nc1ccc([C@@H]2CNCCO2)cc1)c1cc(-c2ccccc2Cl)n[nH]1 [Example 13, hydrochloride] = 0.001

# Ki measured on rat TAAR1 (Rattus norvegicus (Rat), UniProt Q923Y9) for item N#Cc1cccc(-c2cc(C(=O)Nc3ccc([C@@H]4CCCNC4)cc3)[nH]n2)c1 [Example 36, hydrochloride] = 0.0138

# Ki measured on rat TAAR1 (Rattus norvegicus (Rat), UniProt Q923Y9) for item N#Cc1cccc(-c2cc(C(=O)Nc3ccc([C@H]4CNCCO4)cc3)n[nH]2)c1 [Example 20, hydrochloride] = 0.0074

# Ki measured on rat TAAR1 (Rattus norvegicus (Rat), UniProt Q923Y9) for item O=C(Nc1ccc([C@H]2CNCCO2)cc1)c1ccn(-c2cc(C(F)(F)F)ncn2)n1 [Example 51, hydrochloride] = 0.0071

# Ki measured on rat TAAR1 (Rattus norvegicus (Rat), UniProt Q923Y9) for item O=C(Nc1ccc([C@H]2CNCCO2)cc1)c1ccn(-c2cncc(Cl)n2)n1 [Example 48, hydrochloride] = 0.0118

# Ki measured on rat TAAR1 (Rattus norvegicus (Rat), UniProt Q923Y9) for item O=C(Nc1ccc([C@@H]2CNCCO2)cc1)c1ccn(-c2ccc(F)cc2)n1 [Example 31, hydrochloride] = 0.0024

====

- tested.on: rat TAAR1 (Rattus norvegicus (Rat))
- experimental.details: Radioligand binding assay on rat TAAR1
- run.parameters: membranes of HEK-293 cells stably expressing rat TAAR1; second value of cell mouse/rat
Structures can show the parent of a compound that is named as a salt.
Each item that follows carries a reported Ki.
Dear colleague, please return just the value in µM, with no unit written.

# example entries with known answers
compound="O=C(Nc1ccc([C@H]2CNCCO2)cc1)c1ccn(-c2ccc(OC(F)F)cc2)n1 [Example 45, hydrochloride]" measurement_kind=Ki numeric_result=0.0014
compound="N#Cc1cc(-c2cc(C(=O)Nc3ccc([C@H]4CNCCO4)cc3)[nH]n2)ccc1F [Example 39, hydrochloride]" measurement_kind=Ki numeric_result=0.003
compound="Cn1nc(-c2cccc(C#N)c2)cc1C(=O)Nc1ccc([C@H]2CNCCO2)cc1 [Example 24, hydrochloride]" measurement_kind=Ki numeric_result=0.0142

Lab note: CCn1nc(C(=O)Nc2ccc([C@H]3CNCCO3)cc2)cc1-c1cccc(OC(F)F)c1 [Example 41, hydrochloride] gave Ki of 0.0016

Lab note: O=C(Nc1ccc([C@H]2CNCCO2)cc1)c1ccn(-c2nccnc2Cl)n1 [Example 49, hydrochloride] gave Ki of 0.139

Lab note: O=C(Nc1ccc([C@H]2CNCCO2)cc1)c1cc(-c2ccc(F)cc2)[nH]n1 [Example 3, hydrochloride] gave Ki of 0.0027

Lab note: O=C(Nc1ccc([C@H]2CNCCO2)cc1)c1cc(-c2ccc(Cl)cc2)n[nH]1 [Example 14, hydrochloride] gave Ki of 0.0028

====

- tested.on: mouse TAAR1 (Mus musculus (Mouse), UniProt Q923Y8)
- Sequence (Q923Y8 whole entry): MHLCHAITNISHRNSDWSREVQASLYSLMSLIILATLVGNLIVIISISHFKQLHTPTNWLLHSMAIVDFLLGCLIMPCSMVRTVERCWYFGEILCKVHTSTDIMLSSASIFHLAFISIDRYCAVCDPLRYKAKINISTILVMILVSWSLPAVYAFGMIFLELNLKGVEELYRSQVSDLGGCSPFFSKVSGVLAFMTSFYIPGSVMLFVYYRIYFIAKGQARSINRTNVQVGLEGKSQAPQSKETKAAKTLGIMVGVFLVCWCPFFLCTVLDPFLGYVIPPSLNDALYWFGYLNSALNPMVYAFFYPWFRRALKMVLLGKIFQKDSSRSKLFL
- experimental.details: Radioligand binding assay on mouse TAAR1
- run.parameters: membranes of HEK-293 cells stably expressing mouse TAAR1; first value of cell mouse/rat
Where a name gives a salt, the structure may show the parent alone.
measurement.kind: Ki
Field: value (include unit after the number)

compound="O=C(Nc1ccc([C@H]2CNCCO2)cc1)c1cc(-c2cccc(OC(F)F)c2)n[nH]1 [Example 40, hydrochloride]" result="0.0005 µM"
compound="CCn1nc(-c2cccc(C#N)c2)cc1C(=O)Nc1ccc([C@H]2CNCCO2)cc1 [Example 25, hydrochloride]" result="0.0051 µM"
compound="COc1cccc(-c2cc(C(=O)Nc3ccc([C@@H]4CNCCO4)cc3)[nH]n2)c1 [Example 16, hydrochloride]" result="0.0013 µM"
compound="COc1ccc(-c2cc(C(=O)Nc3ccc([C@H]4CNCCO4)cc3)[nH]n2)cc1 [Example 7, hydrochloride]" result="0.0012 µM"
compound="CCn1nc(C(=O)Nc2ccc([C@H]3CNCCO3)cc2)cc1-c1cccc(OC(F)F)c1 [Example 41, hydrochloride]" result="0.0025 µM"
compound="Cn1nc(-c2ccc(F)cc2)cc1C(=O)Nc1ccc(C2CNCCO2)cc1 (stereo in doubt) [Example 22, hydrochloride]" result="0.0023 µM"

Next:
Lab note: N#Cc1cccc(-c2cc(C(=O)Nc3ccc([C@H]4CCCNC4)cc3)[nH]n2)c1 [Example 37, hydrochloride] gave Ki of 0.0017 µM

====

Each item that follows carries a reported Ki.
- tested.on: rat TAAR1 (Rattus norvegicus (Rat))
- experimental.details: Radioligand binding assay on rat TAAR1
- run.parameters: membranes of HEK-293 cells stably expressing rat TAAR1; second value of cell mouse/rat
Structures can show the parent of a compound that is named as a salt.
Dear colleague, please return just the value in µM, with no unit written.

# example entries with known answers
molecule="COc1ccccc1-c1cc(C(=O)Nc2ccc([C@H]3CNCCO3)cc2)[nH]n1 [Example 9, hydrochloride]" unit_text=µM numeric_result=0.014
molecule="N#Cc1ccc(F)c(-c2cc(C(=O)Nc3ccc([C@H]4CNCCO4)cc3)n[nH]2)c1 [Example 28, hydrochloride]" unit_text=µM numeric_result=0.0129

Lab note: O=C(Nc1ccc([C@H]2CNCCO2)cc1)c1ccn(-c2cncc(C(F)(F)F)n2)n1 [Example 52, hydrochloride] gave Ki of 0.0074

Lab note: O=C(Nc1ccc([C@@H]2CNCCO2)cc1)c1cc(-c2cccc(Cl)c2)n[nH]1 [Example 15, hydrochloride] gave Ki of 0.0004

Lab note: O=C(Nc1ccc([C@H]2CNCCO2)cc1)c1ccn(-c2ccnc(C(F)(F)F)n2)n1 [Example 54, hydrochloride] gave Ki of 0.0088

Lab note: O=C(Nc1ccc([C@H]2CNCCO2)cc1)c1ccn(-c2ccc(F)cc2)n1 [Example 29, hydrochloride] gave Ki of 0.0024

Lab note: O=C(Nc1ccc([C@H]2CNCCO2)cc1)c1cc(-c2cccc(Cl)c2)[nH]n1 [Example 2, hydrochloride] gave Ki of 0.0004

====

- tested.on: mouse TAAR1 (Mus musculus (Mouse), UniProt Q923Y8)
- experimental.details: Radioligand binding assay on mouse TAAR1
- run.parameters: membranes of HEK-293 cells stably expressing mouse TAAR1; first value of cell mouse/rat
Counter-ions that a name gives are not always drawn.
measurement.kind: Ki (µM)
Dear colleague, please return just the value in µM, with no unit written.

# example entries with known answers
compound="O=C(Nc1ccc([C@H]2CNCCO2)cc1)c1ccn(-c2cnc(Cl)cn2)n1 [Example 50, hydrochloride]" measurement_kind=Ki unit_text=µM numeric_result=0.0027
compound="Cn1nc(-c2cccc(OC(F)F)c2)cc1C(=O)Nc1ccc([C@H]2CNCCO2)cc1 [Example 44, hydrochloride]" measurement_kind=Ki unit_text=µM numeric_result=0.0663

Lab note: Cn1nc(C(=O)Nc2ccc([C@H]3CNCCO3)cc2)cc1-c1ccccc1 [Example 18, hydrochloride] gave Ki of 0.0017

====

- tested.on: rat TAAR1 (Rattus norvegicus (Rat))
- experimental.details: Radioligand binding assay on rat TAAR1
- run.parameters: membranes of HEK-293 cells stably expressing rat TAAR1; second value of cell mouse/rat
- Procedure: Construction of TAAR Expression Plasmids and Stably Transfected Cell Lines For the construction of expression plasmids the coding sequences of human, rat and mouse TAAR 1 were amplified from genomic DNA essentially as described by Lindemann et al.. The Expand High Fidelity PCR System (Roche Diagnostics) was used with 1.5 mM Mg^2+ and purified PCR products were cloned into pCR2.1-TOPO cloning vector (Invitrogen) following the instructions of the manufacturer. […]
Structures can show the parent of a compound that is named as a salt.
Friendly reminder: Ki below 0.003 µM is true, at or above is false.

# example entries with known answers
molecule="Cn1nc(C(=O)Nc2ccc([C@H]3CNCCO3)cc2)cc1-c1ccccc1 [Example 18, hydrochloride]" category_label=false
molecule="COc1cccc(-c2cc(C(=O)Nc3ccc([C@@H]4CNCCO4)cc3)[nH]n2)c1 [Example 16, hydrochloride]" category_label=true
molecule="Cn1nc(-c2cccc(OC(F)F)c2)cc1C(=O)Nc1ccc([C@H]2CNCCO2)cc1 [Example 44, hydrochloride]" category_label=false

# ---- query molecule ----
Does Cn1nc(-c2cccc(Cl)c2)cc1C(=O)Nc1ccc([C@H]2CNCCO2)cc1 [Example 17, hydrochloride] have Ki strictly under 0.003 µM?
true
